Each recorded value in this set is attributed to patent US11083725B2.

Tested on: NHBE cells
measurementDescription: Biolog metabolic array: substrate use by NHBE cells with or without CA09 infection
Type: cell-based, human
experimentalSetup: Control (uninfected) NHBE cells, 9 hr
observable: 590 nm absorbance normalized to zero hour (substrate use), 9 hr

{"compound": "OC[C@@H](O)[C@@H](O)CO", "result": 4.30}
{"compound": "O=C(CO)[C@@H](O)[C@H](O)[C@@H](O)CO", "result": 2.80}
{"compound": "NCCCC(=O)O", "result": 2.20}
{"compound": "O=c1[nH]cnc2c1ncn2[C@@H]1O[C@H](CO)[C@@H](O)[C@H]1O", "result": 6.41}

Please report 590 nm absorbance normalized to zero hour (substrate use), 9 hr for every entry that follows.
1. Nc1ncnc2c1ncn2[C@@H]1O[C@H](CO)[C@@H](O)[C@H]1O
2. CCC(=O)O
3. CC(=O)N[C@@H]1C(O)O[C@H](CO)[C@@H](O)[C@@H]1O (stereo partly drawn)
4. OC[C@H]1OC(O)[C@@H](O)[C@@H](O)[C@@H]1O (stereo partly drawn)
5. OC[C@H]1O[C@@](CO)(O[C@H]2O[C@H](CO)[C@@H](O)[C@H](O)[C@H]2O)[C@@H](O[C@H]2O[C@H](CO)[C@@H](O)[C@H](O)[C@H]2O)[C@@H]1O

Result:
[3.78, 1.99, 0.58, 9.60, 3.84]

###

System: NHBE cells
measurementDescription: Biolog metabolic array: substrate use by NHBE cells with or without CA09 infection
Type: cell-based, human
experimentalSetup: Virus (CA09-infected, MOI 1) NHBE cells, 11 hr
Quick rule for you: 590 nm absorbance normalized to zero hour (substrate use), 11 hr at 4 or higher means met, lower means not met.

Examples with answers:
{"compound": "C[C@@H](O)CC(=O)O [b-Hydroxy-Butyric Acid]", "system": "NHBE cells", "labelValue": "not met"}
{"compound": "O=c1[nH]cnc2c1ncn2[C@@H]1O[C@H](CO)[C@@H](O)[C@H]1O", "system": "NHBE cells", "labelValue": "met"}
{"compound": "NCCCC(=O)O", "system": "NHBE cells", "labelValue": "not met"}
{"compound": "OC[C@H]1OC(O)[C@@H](O)[C@@H](O)[C@@H]1O (stereo partly shown)", "system": "NHBE cells", "labelValue": "met"}
{"compound": "O=C[C@H](O)[C@@H](O)[C@H](O)[C@H](O)COP(=O)(O)O [D-Glucose-6-Phosphate]", "system": "NHBE cells", "labelValue": "met"}

API: the following record is the query input.
Query: Check if 590 nm absorbance normalized to zero hour (substrate use), 11 hr >= 4 (inclusive). Item: `O=C[C@H](O)[C@@H](O)[C@@H](O)[C@H](O)CO`
Result: not met

###

Tested on: NHBE cells
measurementDescription: Biolog metabolic array: substrate use by NHBE cells with or without CA09 infection
Assay type: cell-based, human
experimentalSetup: Control (uninfected) NHBE cells, 9 hr
observable: 590 nm absorbance normalized to zero hour (substrate use), 9 hr
Give bare numbers.

Worked examples, 3 molecules total:
{"smilesRepresentation": "Cc1cn([C@H]2C[C@H](O)[C@@H](CO)O2)c(=O)[nH]c1=O", "number": 1.52}
{"smilesRepresentation": "OC[C@@H](O)[C@@H](O[C@H]1O[C@H](CO)[C@@H](O)[C@H](O)[C@H]1O)[C@H](O)[C@@H](O)CO", "number": 5.77}
{"smilesRepresentation": "OC[C@@H](O)[C@@H](O)[C@H](O)[C@H](O)CO", "number": 0.79}

Record 590 nm absorbance normalized to zero hour (substrate use), 9 hr per entry; entries follow.
1. O=C(O)CCC(=O)O
2. O=C(CO)[C@@H](O[C@H]1O[C@H](CO)[C@@H](O)[C@H](O)[C@H]1O)[C@H](O)[C@H](O)CO

Result:
1: 0.94; 2: 0.57
